system: HS 578T breast; experiment: NCI tumour cell line growth inhibition, 48 h
test.readout: TGI

Form: compound = Oc1oc(-c2ccccc2)nc1/C=C1/C=NN=N1 ; TGI = > 100 µM

Record Cc1ccc2oc(=O)cc(C3c4ccc([nH]4)C(c4cc(=O)oc5ccc(C)cc45)c4ccc([nH]4)C(c4cc(=O)oc5ccc(C)cc45)c4ccc([nH]4)C(c4cc(=O)oc5ccc(C)cc45)c4ccc3[nH]4)c2c1 (centres undefined) . Reported TGI: 2.02 µM

// CCOc1ccc(C(c2c(O)c3ccccc3oc2=O)c2c(O)c3ccccc3oc2=O)cc1 : TGI value = > 100 µM

Entry OC1NC2CC3NC(O)C(O)NC3CC2NC1O (centres undefined) — recorded TGI = > 100 µM

Looking up COc1ccc(-c2cc3nccn3c(Nc3ncccc3C(N)=O)n2)cc1OC , I found its TGI recorded as > 100 µM

Measured TGI of Cn1c2cc(Cl)ccc2c2ccc3c(c21)C(=O)C=CC3=O : > 100 µM

TGI measured on O=C(Nc1ccc([N+](=O)[O-])cc1)c1cc2ccccc2cc1O = > 100 µM

In plain terms, N#CCCCCC12C3C(=O)N(c4ccccc4)C(=O)C3ON1O[C@@H]1C(=O)N(c3ccccc3)C(=O)[C@@H]12 (some centres undefined) has a documented TGI of > 100 µM

Form: compound = c1cc(-c2cnn3nc(N4CCOCC4)ccc23)nc(NC2CC2)n1 ; TGI = > 22.8 µM

----------
test system: SNB-19 CNS; experiment: NCI tumour cell line growth inhibition, 48 h
Where a SMILES comes first, the peptide text is derived from it. Side-chain parts run from the residue outwards. The star is where a group is joined. Cbz = O=C(OCc1ccccc1)*; Boc = CC(C)(C)OC(=O)*
test.readout: TGI

Data point: Cc1ccc(C(=O)Nc2ccccc2C(=O)N/N=C(\c2ccccc2)c2ccccn2)cc1 ; TGI = > 100 µM

Record summary for O=C(O)c1ccc(/C=N\N(CCO)C2=NCCN2)cc1 : reported TGI = > 100 µM

Record CCCCCCCCC[C@@H]1C[C@@H]2CCC3C(C(=O)OCCCCNC(=O)OCc4ccccc4)=C(C)NC(=N1)N32 (stereo partly drawn) , field TGI: 29.4 µM

# molecule CC(=O)NNc1nc(C)c(C(/C=C/c2ccc(Cl)cc2)=N/NC(=S)NN)s1 ; its TGI = > 100 µM

Sample C=CC[C@@]1(C#N)C[C@H](C[C@]2(C#N)C[C@H](CCl)OC(C)(C)O2)OC(C)(C)O1 ; TGI observed: > 100 µM

Value of measured TGI for the entry CN(C)S(=O)(=O)c1cccc(-c2nc3sc4c(c3c(=O)[nH]2)CCCC4)c1 : > 100 µM

Noted for CCN1CCN(c2nc(C)cc(N(CCCNc3ccnc4cc(Cl)ccc34)Cc3ccco3)n2)CC1 : its TGI reads 17.5 µM

In plain terms, Cn1c2cc(Cl)ccc2c2ccc3c(c21)C(=O)C=CC3=O has a documented TGI of > 100 µM

Value of TGI reported for the molecule CC(C)(CO)NC(=O)c1cccc(C(=O)NC(C)(C)CO)c1Br is > 100 µM

// recorded TGI for COc1cc(C(=O)/C=C/c2c(-c3cccs3)nc3ccccn23)cc(OC)c1OC : 5.56 µM

Reported TGI for O=C1/C(=C/c2ccc(C(F)(F)F)cc2)COc2ccc(O)cc21 was 3.98 µM

Per the record, COC(=O)NN=C1C(C)(C)C(=NNC(=O)OC)C1(C)C has TGI of > 100 µM

The recorded TGI for entry COC(=O)c1cccc2c1Oc1ccccc1S2 equals > 100 µM

Reported TGI of N#CCCCCC12C3C(=O)N(c4ccccc4)C(=O)C3ON1O[C@@H]1C(=O)N(c3ccccc3)C(=O)[C@@H]12 (stereo partly drawn) : > 100 µM

// CC(C)CC(NC(=O)OCc1ccccc1)C(=O)NCCCCC(NC(=O)C(CCCCNC(=O)C(CC(C)C)NC(=O)OCc1ccccc1)NC(=O)C(CCCCNC(=O)C(CC(C)C)NC(=O)OCc1ccccc1)NC(=O)C(CCCCNC(=O)C(CC(C)C)NC(=O)OCc1ccccc1)NC(=O)OC(C)(C)C)C(=O)O (stereo not drawn) (Boc-K([Leu-Cbz])K([Leu-Cbz])K([Leu-Cbz])K([Leu-Cbz])-OH; configuration not given here) : TGI value = > 25 µM

Looking up O=C(O)C1=C(Cl)c2ccccc2S1(=O)=O , I found its TGI recorded as > 100 µM

Measured TGI, C=C(CN(CCN1CCOCC1)CC(=C)c1ccc(C(=O)Nc2ccccc2N)cc1)c1ccc(C(=O)Nc2ccccc2N)cc1 : 33.4 µM

Entry under test: CCOC(CN(C)C(=O)OCC(Cl)(Cl)Cl)OCC . Its TGI was > 100 µM

----------
tested on: OVCAR-8 ovarian; experiment: NCI tumour cell line growth inhibition, 48 h
test.readout: TGI

Just so you know, measured TGI for CCCCCC/C=C/CCCCCCCc1cccc(O)c1C(=O)O came out at > 100 µM

In plain terms, CCOC(=O)/C(=C\NC#N)c1nc2ccccc2[nH]1 has a documented TGI of > 100 µM

For this molecule ( CN(C)C(=S)/N=c1\ssc(=S)n1Cc1ccccn1 ), measured TGI is > 100 µM

Kindly note the recorded TGI for Cc1cc(O)c(/C=N/C(=O)NN)c(=O)o1 , which is > 100 µM

molecule COc1ccc(C2c3c(-c4ccccc4)nn(-c4ccccc4)c3Oc3ncn(N)c(=N)c32)cc1OC (stereo unspecified) , TGI observed: 5.89 µM

Record COC(=O)C1(Cc2ccc3c(c2)CCC3)Cc2cc3c(cc2C1=O)CCC3 (stereo unspecified) . Reported TGI: > 46.4 µM

Field TGI (entry COC(=O)C1=C2CO[C@@H]3C[C@H]4C(C)(C)CCC[C@]4(C)C(=CC1)[C@]23C ) reads > 100 µM

The molecule identified as C=C(CN(CCN1CCOCC1)CC(=C)c1ccc(C(=O)Nc2ccccc2N)cc1)c1ccc(C(=O)Nc2ccccc2N)cc1 registered its TGI at 29.5 µM

TGI in this record for O/N=C1/C(=C/c2ccc(Cl)cc2)CCCC1C(NO)c1ccc(Cl)cc1 (stereo unspecified) : 55.3 µM

Entry under test: CN(C)Cc1cc(C(=O)/C=C/c2c(F)cccc2Cl)cc(CN(C)C)c1O . Its TGI was 41.2 µM

So, c1cc(C2N3CCCN2CC3)ccn1 (stereo unspecified) ? Its TGI was > 100 µM

----------
Exercise: state measured GI50 for each of the compounds provided.
tested on: SF-295 CNS; assay: NCI tumour cell line growth inhibition, 48 h

// returns GI50 for COc1cc2c(cc1-c1c(C)noc1C)ncc1[nH]c(=O)n([C@H](C)c3ccccn3)c12 with SF-295 CNS; value = 0.649 µM

# lookup: C#CCOc1cccc(Nc2ncnc3c2ncn3C2CCN(C(=O)CCl)C2)c1 (stereo not given) on SF-295 CNS, GI50 = > 100 µM

Short answer on SF-295 CNS for C[C@@H]1CCC2[C@@H](C)[C@H](OC(=O)CCC(=O)NCCNC(=O)Cc3cc(=O)oc4cc(N(C)C)ccc34)O[C@@H]3O[C@]4(C)CC[C@@H]1C23OO4 (stereo not given in full) , GI50: 2.04 µM

So the reported GI50 for CCCCCCCCCCC(CN(CC)CC)C(O)c1ccccc1 (stereo not given) , on SF-295 CNS, turned out to be 1.84 µM

For the compound COc1ccc2nc(C3=CN(C4OC(CO)C(O)C(O)C4O)C4C=CC=CC34)sc2c1 (stereo not given) , the measured GI50 on SF-295 CNS was 26.6 µM

The reported GI50 value, SF-295 CNS, for CN(C)S(=O)(=O)c1cccc(-c2nc3sc4c(c3c(=O)[nH]2)CCCC4)c1 reads 1.35 µM

GI50 of CCC[CH2][Sn]1([CH2]CCC)[O]CC([CH2][Sn]([c]2ccccc2)([c]2ccccc2)[c]2ccccc2)[O]1 (stereo not given) , assay on SF-295 CNS, is 16.2 µM

Measured GI50 (SF-295 CNS), entry O=C1/C(=C/c2ccc(C(F)(F)F)cc2)COc2ccc(O)cc21 : 12.1 µM

Entry Cc1sc2c(c1C)C(c1ccc(Cl)cc1)=N[C@@H](CC(=O)Nc1ccc(O)cc1)c1nnc(C)n1-2 , tested on SF-295 CNS, has a reported GI50 of 2 µM

Per the reported SF-295 CNS data, Cc1cc(Cl)ccc1Nc1nc(C(F)(F)F)ccc1C(=O)N/N=C/c1ccc(N(C)C)cc1 has GI50 of 1.42 µM

Hey, SF-295 CNS data for CC(=O)[CH-]C(=O)c1ccccc1.CC(=O)[CH-]C(=O)c1ccccc1.CC[O-].O=C1C=C([O-])C(=O)c2ccccc21.[Ti+4] : GI50 came out at 37.9 µM

The value of GI50 recorded for COc1cc(C(=O)/C=C/c2c(-c3cccs3)nc3ccccn23)cc(OC)c1OC when tested on SF-295 CNS reads 2.24 µM

Item CC(=O)[CH-]C(=O)c1ccccc1.CC(=O)[CH-]C(=O)c1ccccc1.CC12CC3(C)CC(C)(C1)CC([O-])(C2)C3.CC[O-].[Ti+4] ; assay system SF-295 CNS; GI50 reported as 33.4 µM

The observed GI50 for CO[C@H]1/C=C/C[C@H](C)[C@@H](C)S(=O)(=O)NC(=O)c2ccc3c(c2)N(C[C@@H]2CC[C@H]21)C[C@@]1(CCCc2cc(Cl)ccc21)CO3 when tested with SF-295 CNS stands at 1.97 µM

Log: SF-295 CNS, compound CCOC(=O)c1cn2ncnc(Oc3ccc(NC(=O)NCCN(CC)CC)c(Cl)c3)c2c1C , GI50 = 2.14 µM

Entry Cc1cc(S(=O)(=O)Nc2nc3ccsc3c(=O)n2Cc2ccccc2)c(S)cc1Cl under SF-295 CNS had GI50 of 26.8 µM

Here COc1ccc(-c2cc3nccn3c(Nc3ncccc3C(N)=O)n2)cc1OC was tested on SF-295 CNS, and its GI50 came to > 100 µM

The reported SF-295 CNS GI50 of CSc1ccc(C(=O)/C=C/c2ccc(F)cc2)cc1 is 33.4 µM

I looked up OCCCCC#Cc1ccccc1C#Cc1cccs1 and its GI50 for SF-295 CNS was 19 µM

Response field GI50 (SF-295 CNS) for item Clc1ccc2c(NCCN3CCN(c4ccnc(N5CCCC5)n4)CC3)ccnc2c1 : 2.37 µM
